pIC50: −log10 of the molar value.
Please consider the recorded pIC50 for p38 MAPKα (Homo sapiens (Human)) in what follows.

compound | pIC50
Cc1ccc(-n2nc(C(C)(C)C)cc2NC(=O)Nc2ccc(Oc3ccnc(Nc4ccc5ncn(C)c5c4)n3)c3ccccc23)cc1 [Example 31] | 7.48
Cc1ccc(-n2nc(C(C)(C)C)cc2NC(=O)Nc2ccc(Oc3ccnc(Nc4ccc5[nH]ncc5c4)n3)c3ccccc23)cc1 [Example 22] | 7.25
Cc1ccc(-n2nc(C(C)(C)C)cc2NC(=O)Nc2ccc(Oc3ccnc(Nc4ccc5[nH]cnc5c4)n3)c3ccccc23)cc1 [Example 30] | 7.05
CC(C)(C)c1cc(NC(=O)Nc2ccc(Oc3ccnc(Nc4ccc5[nH]ncc5c4)c3)c3ccccc23)n(-c2ccc(OCCN3CCOCC3)cc2)n1 [Example 67] | 8.30
Cc1ccc(-n2nc(C(C)(C)C)cc2NC(=O)Nc2ccc(Oc3ccnc(Nc4ccc5c(c4)OCO5)n3)c3ccccc23)cc1 [Example 33] | 6.43
COc1ccc(-n2nc(C3CCOC3)cc2NC(=O)Nc2ccc(Oc3ccnc(Nc4ccc5[nH]ncc5c4)n3)c3ccccc23)cc1 (stereo not drawn) [Example 8] | 8.15
